I'd appreciate it if you could supply Average CPM values for the items below.
Molecular target: Radiation Leukemia Virus reverse transcriptase (Radiation murine leukemia virus, UniProt P11227)
Construct: the reverse transcriptase of Radiation Leukemia Virus; endogenous in cells
Experiment: Radiation Leukemia Virus reverse transcriptase assay, supernatants from infected AQR cells (Examples 4 and 9)
Assay type: biochemical
Conditions: 10 micrograms; Table VIII

Example entries begin here.
[[record]]
compound = "Cc1cc(O)c2cc3c(O)cc(O)c4c5c(O)cc(O)c6cc7c(O)cc(C)c8c1c2c(c34)c(c78)c65 [WIS-5, desoxyhypericin]"
meas_value = "177,364 CPM"

[[record]]
compound = "O=c1c2c(O)ccc3c4ccc(O)c5c(=O)c6c(O)cc(O)c7c8c(O)cc(O)c1c8c(c23)c(c54)c67 [WIS-3, desmethylhypericin]"
meas_value = "119,248 CPM"

[[record]]
compound = "CC(=O)Oc1cc(O)c2c(=O)c3c(O)cc(C)c4c5c(C)cc(O)c6c(=O)c7c(O)cc(OC(C)=O)c8c1c2c(c34)c(c65)c78 [WIS-6, hypericin diacetate]"
meas_value = "146,588 CPM"


With those in mind, consider the next compound.
Given CC(=O)Oc1cc(C)c2c3c(C)cc(OC(C)=O)c4cc5c(OC(C)=O)cc(OC(C)=O)c6c7c(OC(C)=O)cc(OC(C)=O)c8cc1c2c(c87)c(c43)c56 [WIS-4, desoxohypericinhexaacetate] , state its recorded Average CPM.
184,852 CPM

----------
Target: Radiation Leukemia Virus reverse transcriptase (Radiation murine leukemia virus, UniProt P11227)
Construct: the reverse transcriptase of Radiation Leukemia Virus; endogenous in cells
Experiment: Radiation Leukemia Virus reverse transcriptase assay, supernatants from infected AQR cells (Examples 4 and 9)
Assay type: biochemical
Details: 5 micrograms; Table VIII
readout.type: Average CPM

// worked examples, Average CPM included
[[record]]
compound = "Cc1cc(O)c2cc3c(O)cc(O)c4c5c(O)cc(O)c6cc7c(O)cc(C)c8c1c2c(c34)c(c78)c65"
meas_value = "236,878 CPM"

[[record]]
compound = "CC(=O)Oc1cc(O)c2c(=O)c3c(O)cc(C)c4c5c(C)cc(O)c6c(=O)c7c(O)cc(OC(C)=O)c8c1c2c(c34)c(c65)c78 [WIS-6, hypericin diacetate]"
meas_value = "90,273 CPM"

[[record]]
compound = "O=c1c2c(O)ccc3c4ccc(O)c5c(=O)c6c(O)cc(O)c7c8c(O)cc(O)c1c8c(c23)c(c54)c67"
meas_value = "76,907 CPM"


Alright, here's another compound for you.
// lookup Average CPM for CC(=O)Oc1cc(C)c2c3c(C)cc(OC(C)=O)c4cc5c(OC(C)=O)cc(OC(C)=O)c6c7c(OC(C)=O)cc(OC(C)=O)c8cc1c2c(c87)c(c43)c56 [WIS-4, desoxohypericinhexaacetate]
164,440 CPM

----------
Test system: Friend Leukemia Virus
Assay: Inhibition of Friend Leukemia Virus-induced splenomegaly in mice, compounds intraperitoneally 24 hours after virus (Example 1(a))
Format: in vivo, BALB/c mice
Details: Mus musculus, ip, read-out: Average Perdosage % Inhibition, dose 100 (micrograms) i.p.; Table III
I'd be grateful if you could share measured inhibition in vivo at 0.1 mg for these entries.
Answer format reminder: number followed by unit.

// worked examples, inhibition in vivo at 0.1 mg included
[[record]]
molecule = "Cc1ccc2cc3ccccc3cc2c1"
meas_value = "37%"

[[record]]
molecule = "c1ccc(-c2c3ccccc3c(-c3ccccc3)c3ccccc23)cc1"
meas_value = "5%"

[[record]]
molecule = "c1ccc2c(c1)c1ccccc1c1ccccc21"
meas_value = "4%"

[[record]]
molecule = "O=c1c2ccccc2oc2ccccc12"
meas_value = "58%"

[[record]]
molecule = "c1cc2cccc3c4cccc5cccc(c(c1)c23)c54"
meas_value = "5%"

[[record]]
molecule = "C=Cc1c2ccccc2cc2ccccc12"
meas_value = "26%"


Pending molecule:
What inhibition in vivo at 0.1 mg value was documented for this molecule, O=C1c2ccccc2C(=O)c2cc(CO)ccc21 [Compound 35, 2-(hydroxymethyl)-anthraquinone] ?
64%
